# Test system: ADRα1B
# MEASUREMENT_DESCRIPTION: PBK modelling-based reverse dosimetry of in vitro EC50 to ED50, ADRα1B
# REPORTED_CONDITIONS: predicted human oral ED50 from in vitro EC50 (Pinckaers et al. [2024]) and modelled Cmax plasma venous
Record TRUE whenever ADRα1B ED50 is at 2 mg/kg bw or higher; record FALSE when lower.

# count of solved cases: 4
MOLECULE: NCC(O)c1ccc(O)cc1 (centres unmarked)
DISCRETE_LABEL: TRUE
--
MOLECULE: CN(C)CCc1ccccc1
DISCRETE_LABEL: TRUE
--
MOLECULE: CNCC(O)c1ccccc1 (centres unmarked)
DISCRETE_LABEL: FALSE
--
MOLECULE: CNCC(O)c1ccc(O)cc1 (centres unmarked) [p-Synephrine, Synephrine]
DISCRETE_LABEL: FALSE

Please look at the following molecule next.
Does the reported ADRα1B ED50 for CN(C)CCc1ccc(O)cc1 fall at or above the 2 mg/kg bw mark? FALSE
